Tested on: MS2 coat protein
MEASUREMENT NOTES: apparent Kd, MS2 coat protein; higher = weaker binding; RNA-MaP array; tryptophan 2.4 mM where present
CONDITION DESCRIPTION: ligand present: tryptophan; designed as: OFF switch for tryptophan
REPORTED METRIC: apparent Kd (nM)
The reply should be a number in nM, with the unit left off.

**Query** Give recorded apparent Kd. `AUAACGAGUGGUGGAAUACAUGGGUGAUAACGAGGACCGGUACGGCCGCCACUCGAUAACAUGAGGAUCACCCAUGUAAUAAUAA`
**Result** 31.1

**Query** Supply recorded apparent Kd for `GAGUAGAGGACGGCCGCCACUAAACAUGAGGAUCACCCAUGUCGUGAUCCGUUACCUAGGGUAGAUAGGACCGGGUCAUGUAGUC` here.
**Result** 45.9

**Query** Please report apparent Kd for the following sequence: `GUGCCGCAUUCACAUGAGGAUCACCCAUGUCGAGGACCGGUACGGCCGCCACUCGACGUGCUUACAGGUCCUUUACGGCCCAAUA`
**Result** 18.8

**Query** Please indicate apparent Kd recorded for `ACUACAAAGUAGUAUAUACGAAAGUAUAGACGAGGACCGGUACGGCCGCCACUCGGUACCGGAAACACAUGAGGAUCACCCAUGU`
**Result** 17.6

**Query** Specify apparent Kd for `UAUCGUCAGACGGCCGCCACUAGAACAUGAGGAUCACCCAUGUAGGUCCUAGAUUCCUCAAUAACUAGGACCGGGUCUGACGAAU` and stop.
**Result** 97.3

**Query** Quickly give me recorded apparent Kd for `AAGACAUGAGGAUCACCCAUGUCGUCUACACGAGGACCGGUACGGCCGCCACUCGUUUGCCAAUGAGCGCAUGCGGCCUGGGUAU`
**Result** 24.1

**Query** Tell me measured apparent Kd for `UUCACAUGGUAUGAAUAUACAUAUAAGAAACGAGGACCGGUACGGCCGCCACUCGUGCCGGAAACAUGAGGAUCACCCAUGUGUU` please.
**Result** 58.5

**Query** Supply recorded apparent Kd for `GCUGUGAAGUCGGCCGCCACUGGUUAGUUUUACCUCAUGUAACAUGAGGAUCACCCAUGUAAUUUCAGGACCGGGACAACAGCAA` here.
**Result** 852

**Query** Please supply the value of reported apparent Kd for the item `AGAUGAGUCACGGCCGCCACUCUUAUCAGGAUCACCCAUGGUUGACAUGAGGAUCACCCAUGUAUGAGGACCGGGUGAUGAGCAU`
**Result** 15.6

**Query** Give reported apparent Kd value for `GACUAUAUGAUAUGUCAGAAAUCCUCGAAACGAGGACCGGUACGGCCGCCACUCGAGUGAUAAACAUGAGGAUCACCCAUGUAAA`
**Result** 51.9

**Query** Report apparent Kd, nothing else, for this sequence: `AUAAAUAAUAAAUAAAAUAAAGUGGGUGAACGAGGACCGGUACGGCCGCCACUCGGACAUGAGGAUCACCCAUGUCCAUGUGAAA`
**Result** 51.2

**Query** Annotate the sequence `CAAAGUUCGUCUCUGGUCCUCUAAUCGGCUCGAGGACCGGUACGGCCGCCACUCGCCCGACAUGAGGAUCACCCAUGUCUGUAAA` with its measured apparent Kd.
**Result** 10.9

**Query** Look up and state reported apparent Kd for `ACAUGAGGAUCACCCAUGUUAAACAGGGUGCGAGGACCGGUACGGCCGCCACUCGGACAUUAUUACGAGUGAAUGGCAACGAUGU`
**Result** 15.4

**Query** Look up apparent Kd of `AACGUCUUGUCGGCCGCCACUGUAUGGUGCGUGACAUGAAACAUGAGGAUCACCCAUGUAGCAUGCAGGACCGGGACAGUGCCAA` and report it.
**Result** 17.8

Values compiled from the EternaBench riboswitch data.
